Would you kindly list Kd for each of these binders?
# Assayed system: T1, extracellular domain of human BCMA (human, UniProt Q02223 1-54)
# T1 construct: amine-linked to Octet AR2G tips; also called hsBCMA; BCMA (human)
# T1 sequence: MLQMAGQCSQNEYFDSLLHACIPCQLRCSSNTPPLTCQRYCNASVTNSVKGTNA
# Test summary: Octet BLI; Fab 200 nM

## Task Quick check: Kd of AB200-R1H32-R2Vk21 (Fab, V domains shown) VH: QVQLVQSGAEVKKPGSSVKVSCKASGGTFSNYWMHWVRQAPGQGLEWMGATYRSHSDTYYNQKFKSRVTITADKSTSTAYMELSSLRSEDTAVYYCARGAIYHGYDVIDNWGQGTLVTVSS VL: DIQMTQSPSSLSASVGDRVTITCRASQSISSYLNWYQQKPGKAPKLLIYATSNLQSGVPSRFSGSGSGTDFTLTISSLQPEDFATYYCQQFRRLPWTFGQGTKLEIKR ?
## Result 0.8 nM

## Task Queued: AB200-R1H32-R2Vk32 (Fab, V domains shown) VH: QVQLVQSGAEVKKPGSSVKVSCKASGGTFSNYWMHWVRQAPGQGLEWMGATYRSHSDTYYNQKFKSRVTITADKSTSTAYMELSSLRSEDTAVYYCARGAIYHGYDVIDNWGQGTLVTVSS VL: DIQMTQSPSSLSASVGDRVTITCRASQSISSYLNWYQQKPGKAPKLLIYATSNLQIGVPSRFSGSGSGTDFTLTISSLQPEDFATYYCQQYRKIPWSFGQGTKLEIKR
## Result 0.873 nM

## Task Queued: AB200-R1H32-R2Vk12 (Fab, V domains shown) VH: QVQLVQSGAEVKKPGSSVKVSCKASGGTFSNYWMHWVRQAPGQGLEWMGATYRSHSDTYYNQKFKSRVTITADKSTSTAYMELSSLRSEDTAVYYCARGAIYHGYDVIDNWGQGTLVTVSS VL: DIQMTQSPSSLSASVGDRVTITCRASQSISSYLNWYQQKPGKAPKLLIYAASSLQSGVPSRFSGSGSGTDFTLTISSLQPEDFATYYCQQYRKIPWSFGQGTKLEIKR
## Result 1.53 nM

## Task Queued: AB200-R1H32-R2Vk13 (Fab, V domains shown) VH: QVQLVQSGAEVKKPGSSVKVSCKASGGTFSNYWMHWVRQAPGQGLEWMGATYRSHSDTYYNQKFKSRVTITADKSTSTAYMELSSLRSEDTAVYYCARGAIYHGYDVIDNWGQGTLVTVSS VL: DIQMTQSPSSLSASVGDRVTITCRASQSISSYLNWYQQKPGKAPKLLIYAASSLQSGVPSRFSGSGSGTDFTLTISSLQPEDFATYYCQQFRKIPWTFGQGTKLEIKR
## Result 2.2 nM

## Task Queued: AB200-R1H32-R2Vk14 (Fab, V domains shown) VH: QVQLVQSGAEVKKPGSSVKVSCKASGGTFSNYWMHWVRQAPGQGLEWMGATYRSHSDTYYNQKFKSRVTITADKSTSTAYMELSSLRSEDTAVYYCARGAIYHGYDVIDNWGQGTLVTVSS VL: DIQMTQSPSSLSASVGDRVTITCRASQSISSYINWYQQKPGKAPKLLIYAASSLQSGVPSRFSGSGSGTDFTLTISSLQPEDFATYYCQQYRRLPWSFGQGTKLEIKR
## Result 1.32 nM

## Task Queued: AB200-R1H32-R2Vk15 (Fab, V domains shown) VH: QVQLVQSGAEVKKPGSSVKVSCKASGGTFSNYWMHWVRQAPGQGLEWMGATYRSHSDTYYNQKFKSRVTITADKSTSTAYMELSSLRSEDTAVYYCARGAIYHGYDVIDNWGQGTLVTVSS VL: DIQMTQSPSSLSASVGDRVTITCRASQSISSYINWYQQKPGKAPKLLIYAASSLQSGVPSRFSGSGSGTDFTLTISSLQPEDFATYYCQQYRRIPWTFGQGTKLEIKR
## Result 1.29 nM

## Task Queued: AB200-R1H32-R2Vk2 (Fab, V domains shown) VH: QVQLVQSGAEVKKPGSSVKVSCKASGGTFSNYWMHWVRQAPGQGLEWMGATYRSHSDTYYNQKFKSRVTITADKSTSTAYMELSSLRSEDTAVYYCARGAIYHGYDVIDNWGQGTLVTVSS VL: DIQMTQSPSSLSASVGDRVTITCRASQSISSYINWYQQKPGKAPKLLIYAASSLQSGVPSRFSGSGSGTDFTLTISSLQPEDFATYYCQQFRKLPWSFGQGTKLEIKR
## Result 1.48 nM

## Task Queued: AB200-R1H32-R2Vk28 (Fab, V domains shown) VH: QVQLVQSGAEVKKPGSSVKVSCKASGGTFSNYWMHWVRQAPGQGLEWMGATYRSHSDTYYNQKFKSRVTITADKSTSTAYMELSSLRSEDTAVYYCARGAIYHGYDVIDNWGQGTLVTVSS VL: DIQMTQSPSSLSASVGDRVTITCRASQSISSYLNWYQQKPGKAPKLLIYATSNIQSGVPSRFSGSGSGTDFTLTISSLQPEDFATYYCQQFRKIPWTFGQGTKLEIKR
## Result 1.19 nM

## Task Queued: AB200-R1H32-R2Vk30 (Fab, V domains shown) VH: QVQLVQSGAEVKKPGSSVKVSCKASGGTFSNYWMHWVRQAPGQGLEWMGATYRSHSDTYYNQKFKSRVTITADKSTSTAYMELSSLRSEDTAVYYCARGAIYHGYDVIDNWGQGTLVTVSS VL: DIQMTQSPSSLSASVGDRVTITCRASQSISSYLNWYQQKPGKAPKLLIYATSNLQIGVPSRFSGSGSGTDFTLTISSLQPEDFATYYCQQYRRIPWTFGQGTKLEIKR
## Result 0.816 nM

## Task Queued: AB200-R1H32-R2Vk40 (Fab, V domains shown) VH: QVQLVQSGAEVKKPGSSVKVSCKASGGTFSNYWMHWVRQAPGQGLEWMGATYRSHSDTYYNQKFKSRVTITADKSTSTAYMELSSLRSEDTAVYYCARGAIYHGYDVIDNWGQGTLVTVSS VL: DIQMTQSPSSLSASVGDRVTITCRASQSISSYINWYQQKPGKAPKLLIYATSNIQSGVPSRFSGSGSGTDFTLTISSLQPEDFATYYCQQYRRIPWTFGQGTKLEIKR
## Result 1.03 nM
